Reference source: paper PMC12155096

Target desc: CYP3A4 (Homo sapiens, UniProt P08684)
Sequence (P08684 whole entry): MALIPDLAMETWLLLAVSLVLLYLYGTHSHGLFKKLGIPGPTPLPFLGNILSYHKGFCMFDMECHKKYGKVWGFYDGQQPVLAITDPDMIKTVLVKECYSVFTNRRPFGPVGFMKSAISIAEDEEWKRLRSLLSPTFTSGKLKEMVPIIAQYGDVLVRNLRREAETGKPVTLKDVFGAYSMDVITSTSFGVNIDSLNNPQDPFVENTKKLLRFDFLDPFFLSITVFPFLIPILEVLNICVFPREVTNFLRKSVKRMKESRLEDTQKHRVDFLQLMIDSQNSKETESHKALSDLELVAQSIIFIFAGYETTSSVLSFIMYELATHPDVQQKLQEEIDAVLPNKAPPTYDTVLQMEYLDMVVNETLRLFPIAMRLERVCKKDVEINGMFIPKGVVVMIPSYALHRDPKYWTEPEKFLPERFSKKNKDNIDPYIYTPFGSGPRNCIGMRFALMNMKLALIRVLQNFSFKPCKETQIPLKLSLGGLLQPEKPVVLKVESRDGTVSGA
Experiment summary: biochemical
Stated conditions: CYP3A4 AC50 (half-maximal activity concentration)
Measurement type: AC50 (µM)

>>> recorded_measurement("O=C(c1ccccc1)C(O)c1ccccc1 (stereo not shown) [Benzoin]")
22.8
>>> recorded_measurement("CC(O)(c1ccc(Cl)cc1)c1ccc(Cl)cc1 [Chlorfenethol]")
11.8
>>> recorded_measurement("N#Cc1c[nH]cc1-c1cccc2c1OC(F)(F)O2 [Fludioxonil]")
5.11
>>> recorded_measurement("Cc1ccc(S(=O)(=O)NCl)cc1 [Chloramine-T trihydrate]")
67.9
>>> recorded_measurement("O=C(CCCN1CCC(O)(c2ccc(Br)cc2)CC1)c1ccc(F)cc1 [Bromperidol]")
4.92
>>> recorded_measurement("N#Cc1c(Cl)cccc1Cl [Dichlobenil]")
17.8
>>> recorded_measurement("CCCSP(=O)(OCC)Oc1ccc(Br)cc1Cl (stereo not shown) [Profenofos]")
3.25
>>> recorded_measurement("Oc1c(Cl)cc(Cl)c(Cl)c1Cl [2,3,4,6-Tetrachlorophenol]")
67
>>> recorded_measurement("CCNc1nc(NC(C)C)nc(SC)n1 [Ametryn]")
29.2
>>> recorded_measurement("Oc1c(Cl)c(Cl)c(Cl)c(Cl)c1Cl [Sodium pentachlorophenate]")
71
>>> recorded_measurement("C=C1C[C@H]2[C@@H]3C=C(C)C4=CC(=O)CC[C@]4(C)[C@H]3CC[C@]2(C)[C@@]1(OC(C)=O)C(C)=O [Melengestrol acetate]")
4.92
>>> recorded_measurement("O=C1C=CC(=O)N1c1ccc(Cc2ccc(N3C(=O)C=CC3=O)cc2)cc1 [Bismaleimide]")
56.6
>>> recorded_measurement("CCC(=O)Oc1ccc(/C(CC)=C(\\CC)c2ccc(OC(=O)CC)cc2)cc1 [Diethylstilbestrol dipropionate]")
22.9
>>> recorded_measurement("CCC1(c2ccccc2)CCC(=O)NC1=O (stereo not shown) [Glutethimide]")
26
>>> recorded_measurement("CC(=O)O[C@H]1CC[C@@]2(C)C(=CC[C@@H]3[C@@H]2CC[C@]2(C)C(=O)CC[C@@H]32)C1 [Dehydroepiandrosterone acetate]")
6.03
>>> recorded_measurement("Clc1ccccc1-c1ccccc1Cl [2,2'-Dichlorobiphenyl]")
14.6
>>> recorded_measurement("CCOP(=O)(OCC)OC(=CCl)c1ccc(Cl)cc1Cl [Chlorfenvinphos]")
1.18
>>> recorded_measurement("O=C(NC(=O)c1c(F)cccc1F)Nc1cc(Cl)c(F)c(Cl)c1F [Teflubenzuron]")
57.7
>>> recorded_measurement("CCOC(=O)C1OC1(C)c1ccccc1 (stereo not shown) [Ethyl methylphenylglycidate]")
37.7
>>> recorded_measurement("O=C(O)c1ccccc1C(c1ccc(O)cc1)c1ccc(O)cc1 [Phenolphthalin]")
30.1
>>> recorded_measurement("O=[N+]([O-])c1cccc(Cl)c1Cl [2,3-Dichloronitrobenzene]")
29.1
>>> recorded_measurement("CC(=O)O[C@]1(C(C)=O)CC[C@H]2[C@@H]3C=C(C)C4=CC(=O)CC[C@]4(C)[C@H]3CC[C@@]21C [Megestrol acetate]")
2.16
>>> recorded_measurement("COc1cc(Nc2c(C#N)cnc3cc(OCCCN4CCN(C)CC4)c(OC)cc23)c(Cl)cc1Cl [Bosutinib]")
3.48
>>> recorded_measurement("C[C@]12CC[C@@H]3c4ccc(OC(=O)N(CCCl)CCCl)cc4CC[C@H]3[C@@H]1CC[C@@H]2O [Estramustine]")
16.9
>>> recorded_measurement("CCOCN(C(=O)CCl)c1c(C)cccc1CC [Acetochlor]")
8.35
>>> recorded_measurement("O=[N+]([O-])c1cc(C2CCCCC2)c(O)c([N+](=O)[O-])c1 [Dinex]")
22.5
>>> recorded_measurement("O=C(O)CCCc1c[nH]c2ccccc12 [Indole-3-butyric acid]")
13.4
>>> recorded_measurement("O=C(CCCN1CCN(c2ccccn2)CC1)c1ccc(F)cc1 [Azaperone]")
5.97
>>> recorded_measurement("O=[N+]([O-])C(Br)(CO)CO [Bronopol]")
5.19
>>> recorded_measurement("COc1ccc(C(=O)c2ccc(C)cc2)c(O)c1 [Mexenone]")
6.22
>>> recorded_measurement("CCOc1ccc(C(C)(C)COCc2cccc(Oc3ccccc3)c2)cc1 [Etofenprox]")
35.7
>>> recorded_measurement("CCCCCCCCCC(C)C=O (stereo not shown) [2-Methylundecanal]")
87.3
>>> recorded_measurement("CC(Oc1cc(Cl)c(Cl)cc1Cl)C(=O)O (stereo not shown) [2-(2,4,5-Trichlorophenoxy)propionic acid]")
76.9
>>> recorded_measurement("COC(=O)c1ccc(C(=O)OC)cc1 [Dimethyl terephthalate]")
40.1
>>> recorded_measurement("O=C(O)c1cc(Cl)cc(Cl)c1 [3,5-Dichlorobenzoic acid]")
55.5
>>> recorded_measurement("Cc1cccc(Nc2ccccc2C(=O)O)c1C [Mefenamic acid]")
73.9
>>> recorded_measurement("Oc1nc(Cl)c(Cl)cc1Cl [3,5,6-Trichloro-2-pyridinol]")
65.8
>>> recorded_measurement("COC(=O)c1cc(Oc2ccc(Cl)cc2Cl)ccc1[N+](=O)[O-] [Bifenox]")
5.23
>>> recorded_measurement("Oc1c(I)cc(I)cc1I [2,4,6-Triiodophenol]")
63.5
>>> recorded_measurement("IC(I)=C(I)I [Tetraiodoethene]")
19.5
